Values were extracted from the RNAGym collection of RNA variant scans (doi:10.7554/elife.90254).

Here, each record is paired with measured self-cleavage data.
B1: LINE1-full (parent)
chain: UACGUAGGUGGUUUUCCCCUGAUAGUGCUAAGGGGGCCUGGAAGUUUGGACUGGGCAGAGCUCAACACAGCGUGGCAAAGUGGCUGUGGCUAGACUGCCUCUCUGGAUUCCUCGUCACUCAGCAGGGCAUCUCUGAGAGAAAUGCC

Variants of: B1
Experiment: self-cleavage, relative activity (ratio to wild type); higher = more cleavage; in vitro, sequencing; the parent is a self-cleaving ribozyme
Please give only the number in your answer, with no unit.

A selection of reference data follows.
# VARIANT KEY, MEASURED PARAMETER, RECORDED NUMBER
rows = [
    ("U9C U62A", "self-cleavage", 0.14),
    ("C3U U119G", "self-cleavage", 0.98),
]

// returns reported self-cleavage for input A57U A78U 0.03

Looking for the measured self-cleavage of A42G A140C , can you help? 0.93

So what's the measured self-cleavage for this one? U26C U62G 0.07

Bench note: what self-cleavage did U96A U130A show? 0.05

Which self-cleavage is reported for this variant? C37U U143C 0.84

// self-cleavage lookup, key: G74A A136U 0.91

Look up self-cleavage for this variant: G34U U115C 1.84

What self-cleavage value was documented for this variant, U52A A57U ? 0.14

Query (variant): U115A U143C ; field requested: self-cleavage 1.54

So what does the record say about self-cleavage for U104C A136U ? 1.91

Param item = A59U A124U ; retrieve measured self-cleavage. 0.68

Consider the variant shown here: U39C G58U What is its recorded self-cleavage? 0.03

Please report the recorded self-cleavage for U45C A140U . 1.05

Please look up its self-cleavage: U20A A141G 1.43

Form field: reported self-cleavage of U12C U29C 1.44

State the recorded self-cleavage for this entry: U15A U115C 1.09

Give its self-cleavage value. Item: A59G U87A 0.06
